Data credit: paper PMC9481563

- Tested system: inactive SHP2 catalytic domain Loopinv (R362E) (Homo sapiens, UniProt Q06124, C459S/R362E)
- Construct: SHP2 R362E (Loopinv); 219-528 + C459S; His6 (N)
- Sequence (Q06124 219-528 R362E/C459S): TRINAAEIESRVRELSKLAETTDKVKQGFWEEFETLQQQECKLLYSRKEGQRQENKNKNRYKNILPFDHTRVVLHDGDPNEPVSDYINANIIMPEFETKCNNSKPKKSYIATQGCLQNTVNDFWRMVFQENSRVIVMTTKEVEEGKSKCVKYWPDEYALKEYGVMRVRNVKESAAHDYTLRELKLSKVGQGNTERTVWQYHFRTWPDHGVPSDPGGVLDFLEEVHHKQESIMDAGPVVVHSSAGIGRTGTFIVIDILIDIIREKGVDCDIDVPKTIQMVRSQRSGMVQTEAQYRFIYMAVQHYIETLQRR
- Protocol: Fluorescence polarization titrations, SHP2 Loopinv
- Experimental conditions: competitive FP titration vs CF-ppIRS1 100 nM, protein fixed; n = 3 technical replicates
pKd: −log10 of the molar value.
Observable: pKd

Compound: CSCC[C@H](NC(=O)[C@@H]1CCCN1C(=O)[C@H](CCSC)NC(=O)[C@H](Cc1ccc(OP(=O)(O)O)cc1)NC(=O)[C@H](CC(=O)O)NC(=O)CNC(=O)[C@H](CO)NC(=O)CNC(=O)[C@H](CCCCN)NC(=O)[C@H](CCCNC(=N)N)NC(=O)CN)C(=O)N[C@@H](COP(=O)(O)O)C(=O)N1CCC[C@H]1C(=O)N[C@@H](CCCCN)C(=O)N[C@@H](CO)C(=O)O [ppIRS1]
Quantitative result: 5.12

Compound: CSCC[C@H](NC(=O)[C@H](Cc1ccc(OP(=O)(O)O)cc1)NC(=O)[C@H](CC(=O)O)NC(=O)[C@H](CO)NC(=O)[C@H](Cc1c[nH]cn1)NC(=O)[C@H](CC(C)C)NC(=O)[C@H](CC(C)C)NC(=O)[C@H](CCCNC(=N)N)NC(=O)[C@H](CO)NC(=O)[C@@H](N)CCCNC(=N)N)C(=O)N[C@@H](CC(N)=O)C(=O)N[C@@H](CCSC)C(=O)N[C@H](C(=O)N1CCC[C@H]1C(=O)N[C@@H](CCCNC(=N)N)C(=O)N[C@@H](CCCNC(=N)N)C(=O)O)[C@@H](C)OP(=O)(O)O [ppCD28]
Quantitative result: 4.82

Compound: CC[C@H](C)[C@H](NC(=O)[C@H](CC(N)=O)NC(=O)[C@@H](NC(=O)[C@H](Cc1ccc(OP(=O)(O)O)cc1)NC(=O)[C@H](CCC(=O)O)NC(=O)CNC(=O)[C@@H]1CCCN1C(=O)[C@H](CO)NC(=O)[C@H](CCCCN)NC(=O)[C@@H]1CCCN1C(=O)[C@@H](N)CCC(=O)O)C(C)C)C(=O)N[C@@H](CCC(=O)O)C(=O)N[C@@H](Cc1ccccc1)C(=O)O [p0SRev-IRS1]
Quantitative result: 5.03

###

- Tested system: inactive SHP2 catalytic domain Loopmut (K364E) (Homo sapiens, UniProt Q06124, C459S/K364E)
- Construct: SHP2 K364E (Loopmut); 219-528 + C459S; His6 (N)
- Sequence (Q06124 219-528 K364E/C459S): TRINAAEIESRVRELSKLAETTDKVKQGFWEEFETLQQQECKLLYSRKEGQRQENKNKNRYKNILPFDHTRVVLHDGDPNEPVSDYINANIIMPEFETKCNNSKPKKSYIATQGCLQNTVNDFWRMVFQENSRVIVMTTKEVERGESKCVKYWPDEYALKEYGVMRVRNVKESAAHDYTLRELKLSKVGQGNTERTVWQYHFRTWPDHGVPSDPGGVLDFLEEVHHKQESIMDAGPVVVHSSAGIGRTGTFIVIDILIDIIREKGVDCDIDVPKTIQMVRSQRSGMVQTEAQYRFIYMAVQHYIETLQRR
- Protocol: Fluorescence polarization titrations, SHP2 Loopmut
- Experimental conditions: competitive FP titration vs CF-ppIRS1 100 nM, protein fixed; n = 3 technical replicates
The following molecules are shown together with reported Kd values.

Smi: CSCC[C@H](NC(=O)[C@H](Cc1ccc(OP(=O)(O)O)cc1)NC(=O)[C@H](CC(=O)O)NC(=O)[C@H](CO)NC(=O)[C@H](Cc1c[nH]cn1)NC(=O)[C@H](CC(C)C)NC(=O)[C@H](CC(C)C)NC(=O)[C@H](CCCNC(=N)N)NC(=O)[C@H](CO)NC(=O)[C@@H](N)CCCNC(=N)N)C(=O)N[C@@H](CC(N)=O)C(=O)N[C@@H](CCSC)C(=O)N[C@H](C(=O)N1CCC[C@H]1C(=O)N[C@@H](CCCNC(=N)N)C(=O)N[C@@H](CCCNC(=N)N)C(=O)O)[C@@H](C)OP(=O)(O)O
Kd (µM): 6.66
--
Smi: CC[C@H](C)[C@H](NC(=O)[C@H](CC(N)=O)NC(=O)[C@@H](NC(=O)[C@H](Cc1ccc(OP(=O)(O)O)cc1)NC(=O)[C@H](CCC(=O)O)NC(=O)CNC(=O)[C@@H]1CCCN1C(=O)[C@H](COP(=O)(O)O)NC(=O)[C@H](CCCCN)NC(=O)[C@@H]1CCCN1C(=O)[C@@H](N)CCC(=O)O)C(C)C)C(=O)N[C@@H](CCC(=O)O)C(=O)N[C@@H](Cc1ccccc1)C(=O)O
Kd (µM): 0.99
--
Smi: CSCC[C@H](NC(=O)[C@@H]1CCCN1C(=O)[C@H](CCSC)NC(=O)[C@H](Cc1ccc(OP(=O)(O)O)cc1)NC(=O)[C@H](CC(=O)O)NC(=O)CNC(=O)[C@H](CO)NC(=O)CNC(=O)[C@H](CCCCN)NC(=O)[C@H](CCCNC(=N)N)NC(=O)CN)C(=O)N[C@@H](COP(=O)(O)O)C(=O)N1CCC[C@H]1C(=O)N[C@@H](CCCCN)C(=O)N[C@@H](CO)C(=O)O
Kd (µM): 3.01
--
Smi: CC[C@H](C)[C@H](NC(=O)[C@H](CC(N)=O)NC(=O)[C@@H](NC(=O)[C@H](Cc1ccc(OP(=O)(O)O)cc1)NC(=O)[C@H](CCC(=O)O)NC(=O)CNC(=O)[C@@H]1CCCN1C(=O)[C@H](CO)NC(=O)[C@H](CCCCN)NC(=O)[C@@H]1CCCN1C(=O)[C@@H](N)CCC(=O)O)C(C)C)C(=O)N[C@@H](CCC(=O)O)C(=O)N[C@@H](Cc1ccccc1)C(=O)O
Kd (µM): 7.73
--
Smi: CSCC[C@H](NC(=O)[C@@H]1CCCN1C(=O)[C@H](CCSC)NC(=O)[C@H](Cc1ccc(OP(=O)(O)O)cc1)NC(=O)[C@H](CC(=O)O)NC(=O)CNC(=O)[C@H](CO)NC(=O)CNC(=O)[C@H](CCCCN)NC(=O)[C@H](CCCNC(=N)N)NC(=O)CN)C(=O)N[C@@H](CO)C(=O)N1CCC[C@H]1C(=O)N[C@@H](CCCCN)C(=O)N[C@@H](CO)C(=O)O
Kd (µM): 23.3
